# measured target: Human plasma kallikrein (Homo sapiens (Human), UniProt P03952)
# Sequence (P03952 391-638 limits assumed): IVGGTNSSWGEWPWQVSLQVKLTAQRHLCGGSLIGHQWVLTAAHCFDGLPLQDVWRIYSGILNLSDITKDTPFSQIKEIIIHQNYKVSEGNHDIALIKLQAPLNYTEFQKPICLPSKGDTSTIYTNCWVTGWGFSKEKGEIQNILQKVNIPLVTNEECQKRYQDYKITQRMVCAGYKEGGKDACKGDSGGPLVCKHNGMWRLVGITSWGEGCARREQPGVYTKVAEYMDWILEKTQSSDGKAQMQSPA
# Sequence (P03952 20-390 partner limits assumed): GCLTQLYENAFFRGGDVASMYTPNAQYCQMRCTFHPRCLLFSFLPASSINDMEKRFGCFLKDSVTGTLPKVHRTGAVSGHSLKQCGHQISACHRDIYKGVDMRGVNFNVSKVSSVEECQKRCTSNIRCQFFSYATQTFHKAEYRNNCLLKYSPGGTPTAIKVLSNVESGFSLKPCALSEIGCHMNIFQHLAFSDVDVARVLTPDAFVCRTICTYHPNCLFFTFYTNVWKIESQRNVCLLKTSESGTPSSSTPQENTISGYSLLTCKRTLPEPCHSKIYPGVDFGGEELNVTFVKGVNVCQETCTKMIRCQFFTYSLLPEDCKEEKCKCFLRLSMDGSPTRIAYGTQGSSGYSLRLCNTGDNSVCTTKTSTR
# assay text: Determination of the IC50 for plasma kallikrein (fluorogenic substrate H-DPro-Phe-Arg-AFC)
# Format: biochemical
# cond: 37° C., read-out: IC50 (human PKal)
parameter measured: log10 IC50 (log10 of the value in nM)
// do not treat as linear: log10 of IC50, unit nM

Before answering, review these 3 worked examples.
Nc1nccc2cc(CNC(=O)c3cncc(Cc4ccnc(N5CCCCC5)c4)c3)ccc12
2.21
Cc1cnn(Cc2ccc(Cc3cncc(C(=O)NCc4c(C)nc5[nH]ccc(C)c4-5)c3)cc2)c1
2.39
CN(C)[C@@H]1CCN(c2cc(Cc3cncc(C(=O)NCc4ccc5c(N)nccc5c4)c3)ccn2)C1 (stereo in doubt)
3.19

Query: Looking for the measured log10 IC50 of `Cc1ccc2cc(Cc3cnc(C)c(C(=O)NCc4ccc5c(N)nccc5c4)c3)ccc2n1` , can you help?
Result: 2.02

Query: Looking for the measured log10 IC50 of `Nc1nccc2cc(CNC(=O)c3cncc(CN4CCN(c5ccccc5)CC4)c3)ccc12` , can you help?
Result: 4.00

Query: Looking for the measured log10 IC50 of Cc1cnn(Cc2ccc(C(O)c3cncc(C(=O)NCc4ccc5c(N)nccc5c4)c3)cc2)c1 (stereo not drawn) , can you help?
Result: 1.55

Query: Looking for the measured log10 IC50 of `Nc1nccc2cc(CNC(=O)c3cncc(Cc4ccc(N5CCCC5)nc4)c3)ccc12` , can you help?
Result: 2.01

Query: Looking for the measured log10 IC50 of `Nc1nccc2cc(CNC(=O)c3cncc(Cc4ccc(F)nc4)c3)ccc12` , can you help?
Result: 4.16

Query: Looking for the measured log10 IC50 of `Nc1nccc2cc(CNC(=O)c3cncc(CN4CCN(Cc5ccccc5F)CC4)c3)ccc12` , can you help?
Result: 3.83

* * *

# measured target: Human KLK1 (Homo sapiens (Human), UniProt P06870)
# Sequence (P06870 25-262): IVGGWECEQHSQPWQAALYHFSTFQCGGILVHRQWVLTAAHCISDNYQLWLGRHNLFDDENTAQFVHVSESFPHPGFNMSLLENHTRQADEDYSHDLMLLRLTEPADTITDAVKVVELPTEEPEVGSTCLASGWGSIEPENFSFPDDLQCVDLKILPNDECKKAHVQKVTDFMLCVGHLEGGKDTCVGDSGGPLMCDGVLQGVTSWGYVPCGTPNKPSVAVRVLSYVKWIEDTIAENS
parameter measured: pIC50
# pIC50: negative log10 of molar concentration; output just the value

Nc1nccc2cc(CNC(=O)c3cncc(Cc4ccccc4)c3)ccc12 [Example 23]
4.49

Now let's try a different one.
Query: Field: pIC50 (Human KLK1 (Homo sapiens (Human), UniProt P06870)). Entry: Nc1nccc2cc(CNC(=O)c3cncc(Cc4ccc(N5CCCC5=O)nc4)c3)ccc12 [Example 53]
Result: 5.41

* * *

# measured target: Human plasma kallikrein (Homo sapiens (Human), UniProt P03952)
# assay text: Determination of the IC50 for plasma kallikrein (fluorogenic substrate H-DPro-Phe-Arg-AFC)
# cond: 37° C., read-out: IC50 (human PKal)
Measured IC50 accompanies every entry in the list below.
// return numeric value only (unit: nM, not printed)

Nc1nccc2cc(CNC(=O)c3cncc(Cc4cccc(Cn5cccn5)c4)c3)ccc12
237
Nc1nccc2cc(CNC(=O)c3cncc(Cc4ccnc(N5CCC(O)C5)c4)c3)ccc12 (centres unmarked)
674
Nc1nccc2cc(CNC(=O)c3cncc(Cc4ccc(N5CCC(F)(F)C5)nc4)c3)ccc12
240
Nc1nccc2cc(CNC(=O)c3cncc(Cc4ccc(N5CCCCC5)nc4)c3)ccc12
313

Query: Looking for the measured IC50 of COC1CCN(c2cc(Cc3cncc(C(=O)NCc4ccc5c(N)nccc5c4)c3)ccn2)C1 (centres unmarked) , can you help?
Result: 234

Query: Looking for the measured IC50 of `COc1cc(Cc2cncc(C(=O)NCc3ccc4c(N)nccc4c3)c2)ccc1Cn1cc(C)cn1` , can you help?
Result: 17.1

Query: Looking for the measured IC50 of CCOC(=O)C1CCN(c2ccc(Cc3cncc(C(=O)NCc4ccc5c(N)nccc5c4)c3)cn2)C1 (centres unmarked) , can you help?
Result: 860

Query: Looking for the measured IC50 of `Nc1nccc2cc(CNC(=O)c3cncc(CN4CCN(Cc5ccccc5)CC4)c3)ccc12` , can you help?
Result: 2750

Query: Looking for the measured IC50 of `Cc1cnn(Cc2ccc(Cn3cc(C(=O)NCc4ccc5c(N)nccc5c4)ccc3=O)cc2)c1` , can you help?
Result: 159

Query: Looking for the measured IC50 of `Nc1nccc2cc(CNC(=O)c3ccc(=O)n(Cc4csc(-c5ccccc5)n4)c3)ccc12` , can you help?
Result: 2670

Query: Looking for the measured IC50 of `Cc1cnn(Cc2ccc(Cc3cncc(C(=O)NCc4ccc5c(N)nccc5c4)n3)cc2)c1` , can you help?
Result: 30.8

* * *

Observed log10(IC50) for Human KLK1 (Homo sapiens (Human), UniProt P06870), reported per entry below.
// do not treat as linear: log10 of IC50, unit µM

Before answering, review these 3 worked examples.
Cc1cnn(Cc2ccc(Cc3cnnc(C(=O)NCc4ccc5c(N)nccc5c4)c3)cc2)c1
1.57
Nc1nccc2cc(CNC(=O)c3cncc(Cc4cccc(Cn5cccn5)c4)c3)ccc12
0.98
Nc1nccc2cc(CNC(=O)c3cncc(Cc4ccc(N5CCCC5)nc4)c3)ccc12
0.70

Query: Field: log10(IC50) (Human KLK1 (Homo sapiens (Human), UniProt P06870)). Entry: `Cc1cnn(CCOCc2cncc(C(=O)NCc3ccc4c(N)nccc4c3)c2)c1`
Result: 0.69

Query: Field: log10(IC50) (Human KLK1 (Homo sapiens (Human), UniProt P06870)). Entry: `COc1cccc(Cc2cncc(C(=O)NCc3ccc4c(N)nccc4c3)c2)c1`
Result: 0.79

Query: Field: log10(IC50) (Human KLK1 (Homo sapiens (Human), UniProt P06870)). Entry: `Nc1nccc2cc(CNC(=O)c3cncc(Cc4cccc(-n5cccn5)c4)c3)ccc12`
Result: 0.45

Query: Field: log10(IC50) (Human KLK1 (Homo sapiens (Human), UniProt P06870)). Entry: `Nc1nccc2cc(CNC(=O)c3cncc(CN4CCN(Cc5ccccc5)CC4)c3)ccc12`
Result: 1.57

Query: Field: log10(IC50) (Human KLK1 (Homo sapiens (Human), UniProt P06870)). Entry: `Cc1cnn(Cc2ccc(Cc3cncc(C(=O)NCc4c(C)nc5[nH]ccc(C)c4-5)c3)cc2)c1`
Result: 1.17

* * *

# measured target: Human plasma kallikrein (Homo sapiens (Human))
# assay text: Determination of the IC50 for plasma kallikrein (fluorogenic substrate H-DPro-Phe-Arg-AFC)
# cond: 37° C., read-out: IC50 (human PKal)
parameter measured: IC50 (nM)
// return numeric value only (unit: nM, not printed)

Query: Looking for the measured IC50 of Nc1nccc2cc(CNC(=O)c3cncc(Cc4ccc(-n5cccn5)cc4)c3)ccc12 [Example 27] , can you help?
Result: 1010

Query: Looking for the measured IC50 of CCN(CC)c1cc(Cc2cncc(C(=O)NCc3ccc4c(N)nccc4c3)c2)ccn1 [Example 87] , can you help?
Result: 358

Query: Looking for the measured IC50 of Cc1ccc2cc(Cc3cncc(C(=O)NCc4c(C)nc5[nH]ccc(C)c4-5)c3)ccc2n1 [Example 13] , can you help?
Result: 923

Query: Looking for the measured IC50 of CCN(CC)c1ccc(Cc2cncc(C(=O)NCc3ccc4c(N)nccc4c3)c2)cn1 [Example 66] , can you help?
Result: 52.7

Query: Looking for the measured IC50 of COc1cccc(CN2CCN(Cc3cncc(C(=O)NCc4ccc5c(N)nccc5c4)c3)CC2)c1 [Example 49] , can you help?
Result: 6990

Query: Looking for the measured IC50 of COc1ncc(C(=O)NCc2ccc3c(N)nccc3c2)cc1Cc1ccc2nc(C)ccc2c1 [Example 18] , can you help?
Result: 702

* * *

# measured target: Human KLK1 (Homo sapiens (Human), UniProt P06870)
# assay text: Determination of the IC50 for KLK1 (fluorogenic substrate H-DVal-Leu-Arg-AFC)
# Type: biochemical
# cond: human KLK1, 37° C.
parameter measured: IC50

Before answering, review these 10 worked examples.
Nc1nccc2cc(CNC(=O)c3cncc(CN4CCN(CCCc5ccccc5)CC4)c3)ccc12 [Example 50]
> 10 µM
Nc1nccc2cc(CNC(=O)c3cncc(CN4CCN(Cc5ccc(F)cc5)CC4)c3)ccc12 [Example 48]
> 40 µM
Cc1cnn(Cc2ccc(Cc3cncc(C(=O)NCc4ccc(CN)cc4C)c3)cc2)c1 [Example 93]
> 40 µM
Cn1cc(CN2CCN(Cc3cncc(C(=O)NCc4ccc5c(N)nccc5c4)c3)CC2)cn1 [Example 47]
> 40 µM
COc1ccc(Cc2cncc(C(=O)NCc3ccc4c(N)nccc4c3)c2)cc1 [Example 26]
> 40 µM
Cc1cnn(Cc2ccc(Cc3cncc(C(=O)NCc4ccc(CN)c(F)c4)c3)cc2)c1 [Example 96]
> 40 µM
Nc1nccc2cc(CNC(=O)c3cncc(CN4CCN(CCc5ccccc5)CC4)c3)ccc12 [Example 51]
> 10 µM
COc1ccccc1Cc1cncc(C(=O)NCc2ccc3c(N)nccc3c2)c1 [Example 29]
7.35 µM
Nc1nccc2cc(CNC(=O)c3cncc(Cc4ccc(N5CCC(F)(F)C5)nc4)c3)ccc12 [Example 57]
> 40 µM
Cc1cnn(Cc2ccc(Cc3ccnc(C(=O)NCc4ccc5c(N)nccc5c4)c3)cc2)c1 [Example 3]
> 40 µM

Now let's try a different one.
Query: Looking for the measured IC50 of Nc1nccc2cc(CNC(=O)c3cncc(Cc4ccc(N5CCCCC5)nc4)c3)ccc12 [Example 56] , can you help?
Result: > 40 µM
